Target: T1, Ecm16 (Streptomyces lasalocidi, UniProt Q0X0A9 1-792)
T1 sequence: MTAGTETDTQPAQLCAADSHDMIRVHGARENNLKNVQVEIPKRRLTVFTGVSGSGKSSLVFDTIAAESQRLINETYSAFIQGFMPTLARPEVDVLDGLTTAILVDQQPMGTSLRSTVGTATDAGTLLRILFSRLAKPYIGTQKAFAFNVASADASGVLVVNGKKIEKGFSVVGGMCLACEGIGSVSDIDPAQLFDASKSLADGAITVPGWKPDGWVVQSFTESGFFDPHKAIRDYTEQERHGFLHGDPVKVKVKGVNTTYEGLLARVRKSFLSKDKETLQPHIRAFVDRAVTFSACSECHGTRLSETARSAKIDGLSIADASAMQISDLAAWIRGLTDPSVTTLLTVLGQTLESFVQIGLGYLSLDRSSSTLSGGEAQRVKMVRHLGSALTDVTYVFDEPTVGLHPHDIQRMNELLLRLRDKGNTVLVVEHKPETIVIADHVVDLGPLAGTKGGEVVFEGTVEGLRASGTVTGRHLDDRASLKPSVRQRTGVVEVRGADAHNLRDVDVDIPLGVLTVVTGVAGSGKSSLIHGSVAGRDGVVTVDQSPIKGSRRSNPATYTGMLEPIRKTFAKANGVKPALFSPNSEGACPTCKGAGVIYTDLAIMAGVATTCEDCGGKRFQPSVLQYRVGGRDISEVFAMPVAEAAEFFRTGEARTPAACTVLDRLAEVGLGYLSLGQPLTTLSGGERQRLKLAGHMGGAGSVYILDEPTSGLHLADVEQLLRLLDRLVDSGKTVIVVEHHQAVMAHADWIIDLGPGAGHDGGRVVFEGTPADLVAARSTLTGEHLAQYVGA
Experiment: EMSA
pKd: −log10 of the molar value.
observedProperty: pKd

32-mer dsDNA (dsDNA) DNA 1: AGTGATCAGTGGTTACGTAACCACTGATCACT DNA 2: AGTGATCAGTGGTTACGTAACCACTGATCACT
7.46
